# Test system: S. Typhinurium (TA 102, TA98 and TA 100)
# experiment.notes: AMES test, revertant colony formation
# Type: cell-based
# condition.info: TA100 without S9, top dose 5 mg/ml
recorded.endpoint: Revertant colony formation TA100
Respond numerically, and do not add a unit to the figure.

Query :: Could you please provide reported Revertant colony formation TA100 for CC(C)(C)S(=O)(=O)N[C@H]1CCCCNC1=O [(IV)] ? Thanks!
Result :: 0.89

Query :: Answer with reported Revertant colony formation TA100 of CC(C)(C)C(=O)N[C@H]1CCCNC1=O [Compound (I′)]
Result :: 0.97

Query :: Answer with the recorded Revertant colony formation TA100 for the compound listed here: CC1(C(=O)N[C@H]2CCCCNC2=O)CCCCC1 [(III)]
Result :: 0.79

Query :: Let me know recorded Revertant colony formation TA100 for O=C1NCCCC[C@@H]1NC(=O)C12CC3CC(CC(O)(C3)C1)C2 [(V)] , thanks.
Result :: 0.78

----------
Hi there, I'd appreciate the recorded half-life for every entry that follows.
# experiment.notes: Pharmacokinetics following a single dose in dog (crossover iv / per os)
# Format: in vivo
# condition.info: plasma, Oral PK (3 mg/kg)

Query :: Return half-life for the following compound: CC(C)(C)C(=O)N[C@H]1CCCNC1=O
Result :: 3.62 h

Query :: Respond only with half-life recorded for O=C1NCCCC[C@@H]1NC(=O)C12CC3CC(CC(O)(C3)C1)C2
Result :: 1.12 h

----------
# experiment.notes: Pharmacokinetics following a single dose in dog (crossover iv / per os)
# Format: in vivo
# condition.info: plasma, Oral PK (3 mg/kg)
recorded.endpoint: bioavailability
Answer by giving the amount and then stating its unit.

Query :: Report bioavailability, nothing else, for this compound: CC(C)(C)C(=O)N[C@H]1CCCNC1=O
Result :: 75%

Query :: Write down bioavailability measured for item O=C1NCCCC[C@@H]1NC(=O)C12CC3CC(CC(O)(C3)C1)C2
Result :: 59%

----------
# System: S. Typhinurium (TA 102, TA98 and TA 100)
# experiment.notes: AMES test, revertant colony formation
# Type: cell-based
# condition.info: TA98 with S9, top dose 5 mg/ml
Marks after values point to notes of the source that are not given here.
recorded.endpoint: Revertant colony formation TA98 + S9

Query :: Hello, please tell me recorded Revertant colony formation TA98 + S9 for this one: O=C1NCCCC[C@@H]1NC(=O)C12CC3CC(CC(C3)C1)C2
Result :: 0.60*

Query :: For O=C1NCCCC[C@@H]1NC(=O)C12CC3CC(CC(O)(C3)C1)C2 , write its Revertant colony formation TA98 + S9.
Result :: 0.91

Query :: Please give the documented Revertant colony formation TA98 + S9 of CC(C)(C)C(=O)N[C@H]1CCCNC1=O
Result :: 1.23

Query :: Fill in reported Revertant colony formation TA98 + S9 for this entry: CC1(C(=O)N[C@H]2CCCCNC2=O)CCCCC1
Result :: 0.55

Query :: Identify measured Revertant colony formation TA98 + S9 corresponding to CC(C)(C)S(=O)(=O)N[C@H]1CCCCNC1=O
Result :: 0.90

----------
# experiment.notes: Pharmacokinetics following a single dose in dog (crossover iv / per os)
# Assay type: in vivo
# condition.info: plasma, Oral PK (3 mg/kg)
Exercise: for every item that follows, state its recorded AUC.

Query :: Supply recorded AUC for O=C1NCCCC[C@@H]1NC(=O)C12CC3CC(CC(O)(C3)C1)C2 here.
Result :: 4000 ng·h/mL

Query :: Please give measured AUC of the following entry: CC(C)(C)C(=O)N[C@H]1CCCNC1=O
Result :: 20200 ng·h/mL

----------
# Tested on: S. Typhinurium (TA 102, TA98 and TA 100)
# experiment.notes: AMES test, revertant colony formation
# Assay type: cell-based
# condition.info: TA100 with S9 rat liver microsomal system, top dose 5 mg/ml
recorded.endpoint: Revertant colony formation TA100 + S9
Answer field: number only, no words.

Query :: Using the record for CC(C)(C)C(=O)N[C@H]1CCCNC1=O , state its measured Revertant colony formation TA100 + S9.
Result :: 0.95

Query :: Determine from records and report Revertant colony formation TA100 + S9 for CC(C)(C)S(=O)(=O)N[C@H]1CCCCNC1=O
Result :: 0.90

Query :: Output measured Revertant colony formation TA100 + S9 for this item: O=C1NCCCC[C@@H]1NC(=O)C12CC3CC(CC(O)(C3)C1)C2
Result :: 0.88

Query :: Answer with reported Revertant colony formation TA100 + S9 of O=C1NCCCC[C@@H]1NC(=O)C12CC3CC(CC(C3)C1)C2
Result :: 0.73

Query :: Dear colleague, please send me the reported Revertant colony formation TA100 + S9 for CC1(C(=O)N[C@H]2CCCCNC2=O)CCCCC1 when you can.
Result :: 0.81

----------
# experiment.notes: Distribution of compounds into tissues and unchanged parent in urine 24 hrs after a single oral dose
# Type: in vivo
# condition.info: muscle; rat, 24 hrs after single oral dose 3 mg/kg in 1% CMC; nd = not detected, LLOQ 2.4 ng/g; read-out: Level of compound in Muscle
recorded.endpoint: concentration at 24 h (ng/g)
The reply should be a number in ng/g, with the unit left off.

Query :: For the compound CC(C)(C)C(=O)N[C@H]1CCCNC1=O [Compound (I′)] , give its reported concentration at 24 h.
Result :: 3.1

----------
# System: S. Typhinurium (TA 102, TA98 and TA 100)
# experiment.notes: AMES test, revertant colony formation
# Type: cell-based
# condition.info: TA102 with S9, top dose 5 mg/ml
Field: Revertant colony formation TA102 + S9. Provide a value for each of the compounds that follow.
Field format: numeric only.

Query :: Note down Revertant colony formation TA102 + S9 recorded for O=C1NCCCC[C@@H]1NC(=O)C12CC3CC(CC(C3)C1)C2 [(II)]
Result :: 0.93

Query :: Answer with the recorded Revertant colony formation TA102 + S9 of CC(C)(C)S(=O)(=O)N[C@H]1CCCCNC1=O [(IV)] only.
Result :: 0.88

Query :: Tell us which Revertant colony formation TA102 + S9 value is on record for CC(C)(C)C(=O)N[C@H]1CCCNC1=O [Compound (I′)]
Result :: 0.93

Query :: Answer with the recorded Revertant colony formation TA102 + S9 of O=C1NCCCC[C@@H]1NC(=O)C12CC3CC(CC(O)(C3)C1)C2 [(V)] only.
Result :: 1.09

Query :: Give Revertant colony formation TA102 + S9 for CC1(C(=O)N[C@H]2CCCCNC2=O)CCCCC1 [(III)]
Result :: 0.88

----------
# Tested on: S. Typhinurium (TA 102, TA98 and TA 100)
# experiment.notes: AMES test, revertant colony formation
# Assay type: cell-based
# condition.info: TA102 without S9, top dose 5 mg/ml
Give Revertant colony formation TA102 for every item shown.
When you answer, write just the number.

Query :: Please give measured Revertant colony formation TA102 of the following entry: O=C1NCCCC[C@@H]1NC(=O)C12CC3CC(CC(O)(C3)C1)C2 [(V)]
Result :: 0.93

Query :: Give me measured Revertant colony formation TA102, please, for this molecule: CC1(C(=O)N[C@H]2CCCCNC2=O)CCCCC1 [(III)]
Result :: 0.69

Query :: Tell me Revertant colony formation TA102 reported for CC(C)(C)C(=O)N[C@H]1CCCNC1=O [Compound (I′)]
Result :: 0.82

Query :: Give the value of Revertant colony formation TA102 reported for the following: CC(C)(C)S(=O)(=O)N[C@H]1CCCCNC1=O [(IV)]
Result :: 0.85

----------
# experiment.notes: Pharmacokinetics following a single dose in rat (LC-MS/MS of blood, one-compartment model)
# Assay type: in vivo
# condition.info: blood; Rat, Oral PK (3 mg/kg)
recorded.endpoint: Tmax (min)
// note: answer is a bare numeric in min

Query :: Entry O=C1NCCCC[C@@H]1NC(=O)C12CC3CC(CC(O)(C3)C1)C2 [(V)] needs its Tmax filled in; supply it.
Result :: 15

----------
# experiment.notes: Pharmacokinetics following a single dose in dog (crossover iv / per os)
# Format: in vivo
# condition.info: plasma, Intravenous PK (1 mg/kg)
recorded.endpoint: half-life
Please format your answer as a value with the unit trailing.

Query :: Give recorded half-life. O=C1NCCCC[C@@H]1NC(=O)C12CC3CC(CC(O)(C3)C1)C2
Result :: 1.1 h

Query :: // Input: CC(C)(C)C(=O)N[C@H]1CCCNC1=O . Output its half-life only.
Result :: 3.93 h

----------
# experiment.notes: Pharmacokinetics following a single dose in rat (LC-MS/MS of blood, one-compartment model)
# Format: in vivo
# condition.info: rat, blood, iv, 1 mg/kg, Rat, Intravenous PK (1 mg/kg); read-out: Clearance
Give clearance for every item shown.
Give a bare numeral; the unit mL/min/kg is implied.

Query :: Give the reported clearance for this molecule. O=C1NCCCC[C@@H]1NC(=O)C12CC3CC(CC(O)(C3)C1)C2
Result :: 33

Query :: Report clearance for CC(C)(C)C(=O)N[C@H]1CCCNC1=O
Result :: 2.6
